- System tested: Human 5-HT6 (Homo sapiens, UniProt P50406)
- Construct: expressed in transfected cells
- Sequence (P50406 whole entry): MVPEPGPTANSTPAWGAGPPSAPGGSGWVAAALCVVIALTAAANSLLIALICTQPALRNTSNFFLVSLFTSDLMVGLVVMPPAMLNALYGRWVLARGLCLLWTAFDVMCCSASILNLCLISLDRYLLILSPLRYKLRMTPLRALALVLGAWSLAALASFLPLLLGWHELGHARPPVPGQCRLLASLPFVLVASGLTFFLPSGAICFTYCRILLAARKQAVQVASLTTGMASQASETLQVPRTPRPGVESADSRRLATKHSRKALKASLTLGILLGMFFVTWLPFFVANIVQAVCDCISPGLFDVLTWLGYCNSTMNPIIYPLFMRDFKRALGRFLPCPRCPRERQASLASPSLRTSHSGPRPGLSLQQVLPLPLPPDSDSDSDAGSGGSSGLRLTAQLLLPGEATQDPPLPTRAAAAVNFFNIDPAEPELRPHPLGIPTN
- Experiment notes: 5-HT6 receptor binding assay ([3H]5-HT displacement, SPA), human receptor
- Condition description: cloned human 5-HT6 receptor, cell membranes, [3H]5-HT 5 nM; read-out: Human 5-HT6 binding IC50
- Procedure: 5-HT6 Receptor Binding Assay Affinity (IC50) of a compound for cloned human, rat, or mouse 5-HT6 receptor was measured by its ability to displace [^3H]5-HT using cell membranes prepared from cultured cells and scintillation proximity assay (SPA) beads that bind to cell membranes (Catalog No. RPNQ0001; GE Healthcare Life Sciences, Piscataway, N.J.). […] Following 1 h incubation at room temperature, the radioactivity bound to the cell membranes was measured on a scintillation counter.
Readout name: IC50 (nM)
Reply with just the number (in nM).

Per the records, this molecule ( O=S(=O)(c1ccc(Br)cc1)n1cc(CCNCc2cccc(OCC(F)(F)C(F)F)c2)c2ccc(F)cc21 [Example 8] ) has IC50 equal to 2.05

Per the records, this molecule ( Cl.O=S(=O)(c1ccccc1)n1cc(CCNCc2cccc(OCC(F)(F)C(F)F)c2)c2ccc(F)cc21 [Example 1] ) has IC50 equal to 0.2

Per the records, this molecule ( CC(C)S(=O)(=O)n1cc(CCNCc2cccc(OCC(F)(F)C(F)F)c2)c2ccc(F)cc21 [Example 14] ) has IC50 equal to 20

Per the records, this molecule ( COc1ccc(S(=O)(=O)n2cc(CCNCc3cccc(OCC(F)(F)C(F)F)c3)c3ccc(F)cc32)cc1 [Example 15] ) has IC50 equal to 10.2
